- TARGET OR SYSTEM: Histone deacetylase 3/NCoR1 (Homo sapiens)
- Sequence (O15379 whole entry): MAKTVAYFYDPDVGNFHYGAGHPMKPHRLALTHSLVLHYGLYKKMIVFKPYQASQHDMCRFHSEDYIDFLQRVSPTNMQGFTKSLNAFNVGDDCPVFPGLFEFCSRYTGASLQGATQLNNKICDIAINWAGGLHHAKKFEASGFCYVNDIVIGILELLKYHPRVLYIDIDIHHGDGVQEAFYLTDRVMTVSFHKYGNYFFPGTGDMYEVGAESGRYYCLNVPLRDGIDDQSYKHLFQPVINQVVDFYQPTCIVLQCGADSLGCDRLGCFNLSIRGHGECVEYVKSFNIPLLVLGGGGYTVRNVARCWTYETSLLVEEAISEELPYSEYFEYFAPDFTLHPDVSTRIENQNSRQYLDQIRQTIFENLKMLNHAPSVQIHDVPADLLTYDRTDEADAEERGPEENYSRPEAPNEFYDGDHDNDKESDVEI
- Sequence (O75376 whole entry, further chain): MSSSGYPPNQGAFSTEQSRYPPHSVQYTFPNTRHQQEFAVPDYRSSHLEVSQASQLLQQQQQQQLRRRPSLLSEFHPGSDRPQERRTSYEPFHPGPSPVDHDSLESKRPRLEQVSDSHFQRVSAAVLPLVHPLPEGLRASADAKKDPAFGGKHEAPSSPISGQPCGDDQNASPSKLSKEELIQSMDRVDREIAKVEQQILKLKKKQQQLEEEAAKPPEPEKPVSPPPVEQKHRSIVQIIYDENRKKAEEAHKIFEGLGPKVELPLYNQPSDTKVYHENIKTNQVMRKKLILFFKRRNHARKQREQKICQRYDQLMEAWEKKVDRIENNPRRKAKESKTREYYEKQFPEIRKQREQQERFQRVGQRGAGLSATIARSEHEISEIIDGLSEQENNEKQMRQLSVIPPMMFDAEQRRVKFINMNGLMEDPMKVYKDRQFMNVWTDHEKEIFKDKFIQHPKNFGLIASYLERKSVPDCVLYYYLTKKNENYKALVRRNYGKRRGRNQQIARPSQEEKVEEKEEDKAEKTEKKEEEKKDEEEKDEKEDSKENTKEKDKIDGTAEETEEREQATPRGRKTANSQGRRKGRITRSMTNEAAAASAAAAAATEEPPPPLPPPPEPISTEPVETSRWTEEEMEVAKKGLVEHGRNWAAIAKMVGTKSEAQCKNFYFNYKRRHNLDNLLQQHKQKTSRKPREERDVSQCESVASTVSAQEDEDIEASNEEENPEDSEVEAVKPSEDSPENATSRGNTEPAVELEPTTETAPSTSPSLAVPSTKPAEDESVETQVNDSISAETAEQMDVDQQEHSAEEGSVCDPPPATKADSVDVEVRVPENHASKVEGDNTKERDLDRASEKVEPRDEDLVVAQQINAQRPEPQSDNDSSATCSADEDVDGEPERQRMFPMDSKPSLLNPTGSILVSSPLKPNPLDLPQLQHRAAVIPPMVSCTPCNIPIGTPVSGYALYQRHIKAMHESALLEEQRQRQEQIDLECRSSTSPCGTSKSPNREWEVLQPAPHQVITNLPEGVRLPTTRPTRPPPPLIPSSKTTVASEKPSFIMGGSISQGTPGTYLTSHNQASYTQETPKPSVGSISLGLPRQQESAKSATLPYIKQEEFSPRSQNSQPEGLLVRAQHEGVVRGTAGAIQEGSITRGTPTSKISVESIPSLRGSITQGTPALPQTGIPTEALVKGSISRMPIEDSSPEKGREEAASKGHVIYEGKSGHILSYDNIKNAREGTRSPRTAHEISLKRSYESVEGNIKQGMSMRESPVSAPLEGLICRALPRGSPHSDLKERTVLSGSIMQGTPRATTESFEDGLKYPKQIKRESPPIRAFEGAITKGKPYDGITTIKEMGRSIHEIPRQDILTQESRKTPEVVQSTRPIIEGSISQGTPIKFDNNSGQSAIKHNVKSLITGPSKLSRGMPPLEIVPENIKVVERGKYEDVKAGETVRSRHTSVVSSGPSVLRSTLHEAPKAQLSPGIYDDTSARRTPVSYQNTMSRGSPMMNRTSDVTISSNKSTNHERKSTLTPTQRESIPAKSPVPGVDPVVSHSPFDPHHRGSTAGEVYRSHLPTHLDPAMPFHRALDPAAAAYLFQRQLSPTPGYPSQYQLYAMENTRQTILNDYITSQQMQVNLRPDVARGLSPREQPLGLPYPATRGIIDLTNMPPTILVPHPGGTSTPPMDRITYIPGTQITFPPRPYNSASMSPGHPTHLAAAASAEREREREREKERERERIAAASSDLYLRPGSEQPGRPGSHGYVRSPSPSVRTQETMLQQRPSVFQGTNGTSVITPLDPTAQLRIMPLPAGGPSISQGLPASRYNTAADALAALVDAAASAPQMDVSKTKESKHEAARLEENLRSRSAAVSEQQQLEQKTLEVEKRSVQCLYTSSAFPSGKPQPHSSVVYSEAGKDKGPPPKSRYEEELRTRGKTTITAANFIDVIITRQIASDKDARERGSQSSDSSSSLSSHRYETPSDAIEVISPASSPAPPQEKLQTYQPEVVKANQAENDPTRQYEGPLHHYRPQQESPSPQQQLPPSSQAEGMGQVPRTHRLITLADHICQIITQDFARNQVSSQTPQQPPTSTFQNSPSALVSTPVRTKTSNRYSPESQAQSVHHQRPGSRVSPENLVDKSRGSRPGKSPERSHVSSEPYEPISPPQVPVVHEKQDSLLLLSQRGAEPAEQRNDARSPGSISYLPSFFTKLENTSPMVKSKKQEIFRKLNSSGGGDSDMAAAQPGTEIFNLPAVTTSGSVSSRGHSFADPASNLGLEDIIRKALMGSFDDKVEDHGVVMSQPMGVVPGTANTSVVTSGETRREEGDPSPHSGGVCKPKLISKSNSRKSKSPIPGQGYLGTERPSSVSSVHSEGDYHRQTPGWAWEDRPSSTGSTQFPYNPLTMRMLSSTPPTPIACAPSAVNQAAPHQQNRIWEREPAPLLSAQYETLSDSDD
- RUN DESCRIPTION: Inhibition of GST-tagged recombinant human HDAC3/NcoR1 enzyme using flurogenic Ac-LeuGlyLys (Ac)-AMC as substrate after 15 to 30 mins
The entries below come with measured pKi values attached.
pKi is a log-scale quantity: -log10 of the concentration expressed in molar.

Worked examples, 4 compounds total:
COMPOUND	pKi
C[C@@H]1C(=O)N[C@H](C)C(=O)N[C@H](C)C(=O)N[C@H](Cc2ccccc2)C(=O)N[C@@H]1C/C=C\CCC(N)=O [AZUMAMIDE D]	5.43
CC(C)[C@H]1NC(=O)[C@@H](C)[C@@H](C/C=C\CCC(=O)O)NC(=O)[C@@H](Cc2ccccc2)NC(=O)[C@@H](C)NC1=O [AZUMAMIDE E]	7.60
CC(C)[C@H]1NC(=O)[C@@H](C)[C@@H](C/C=C\CCC(N)=O)NC(=O)[C@@H](Cc2ccc(O)cc2)NC(=O)[C@@H](C)NC1=O [AZUMAMIDE B]	5.52
CC(C)[C@H]1NC(=O)[C@@H](C)[C@@H](C/C=C\CCC(=O)O)NC(=O)[C@@H](Cc2ccc(O)cc2)NC(=O)[C@@H](C)NC1=O [AZUMAMIDE C]	7.85

Shift focus to the following entry.
Ask: // Input: CC(C)[C@H]1NC(=O)[C@@H](C)[C@@H](C/C=C\CCC(N)=O)NC(=O)[C@@H](Cc2ccccc2)NC(=O)[C@@H](C)NC1=O [AZUMAMIDE A] . Output its pKi only.
Reply: 5.49

----------
The entries below come with measured inhibition values attached.
- TARGET OR SYSTEM: Protein deacetylase HDAC6 (Homo sapiens) (UniProt Q9UBN7)
- Sequence (whole entry): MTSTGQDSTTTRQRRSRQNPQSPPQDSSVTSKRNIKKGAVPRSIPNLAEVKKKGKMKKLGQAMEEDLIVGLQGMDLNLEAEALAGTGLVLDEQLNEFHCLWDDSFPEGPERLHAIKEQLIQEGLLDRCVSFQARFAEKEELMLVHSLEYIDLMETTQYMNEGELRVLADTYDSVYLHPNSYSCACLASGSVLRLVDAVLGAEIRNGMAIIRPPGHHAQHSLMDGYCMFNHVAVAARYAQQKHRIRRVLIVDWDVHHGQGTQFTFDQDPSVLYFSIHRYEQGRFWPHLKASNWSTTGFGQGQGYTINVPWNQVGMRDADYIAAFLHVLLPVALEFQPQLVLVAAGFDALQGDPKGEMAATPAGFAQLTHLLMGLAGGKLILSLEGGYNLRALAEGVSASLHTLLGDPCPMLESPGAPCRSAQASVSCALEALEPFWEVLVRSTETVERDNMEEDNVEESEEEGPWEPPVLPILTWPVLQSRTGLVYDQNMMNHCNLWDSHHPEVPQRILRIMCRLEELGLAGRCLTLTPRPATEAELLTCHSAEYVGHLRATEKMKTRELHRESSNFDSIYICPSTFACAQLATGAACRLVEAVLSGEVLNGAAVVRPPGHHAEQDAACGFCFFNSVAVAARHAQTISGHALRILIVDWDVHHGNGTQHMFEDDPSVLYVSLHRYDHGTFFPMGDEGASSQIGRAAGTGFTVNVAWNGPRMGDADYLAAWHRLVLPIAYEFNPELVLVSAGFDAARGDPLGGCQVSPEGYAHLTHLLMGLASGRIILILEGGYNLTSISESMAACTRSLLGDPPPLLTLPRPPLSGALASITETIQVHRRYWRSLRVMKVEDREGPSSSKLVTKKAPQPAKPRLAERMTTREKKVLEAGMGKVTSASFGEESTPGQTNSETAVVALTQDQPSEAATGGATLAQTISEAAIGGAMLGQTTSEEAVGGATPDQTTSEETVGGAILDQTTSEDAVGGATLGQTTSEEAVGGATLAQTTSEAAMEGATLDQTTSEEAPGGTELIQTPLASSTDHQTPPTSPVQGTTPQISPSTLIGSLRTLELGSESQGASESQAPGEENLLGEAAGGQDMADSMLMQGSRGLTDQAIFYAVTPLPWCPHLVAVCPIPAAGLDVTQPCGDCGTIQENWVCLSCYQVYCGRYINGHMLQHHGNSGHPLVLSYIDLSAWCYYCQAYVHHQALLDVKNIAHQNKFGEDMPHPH
- RUN DESCRIPTION: Inhibition of recombinant human HDAC6 enzyme using flurogenic Ac-LeuGlyLys (Ac)-AMC as substrate at 50 uM after 15 to 30 mins

Worked examples, 4 compounds total:
COMPOUND	RECORDED MEASUREMENT
CC(C)[C@H]1NC(=O)[C@@H](C)[C@@H](C/C=C\CCC(N)=O)NC(=O)[C@@H](Cc2ccc(O)cc2)NC(=O)[C@@H](C)NC1=O [AZUMAMIDE B]	< 50%
CC(C)[C@H]1NC(=O)[C@@H](C)[C@H](C/C=C\CCC(=O)O)NC(=O)[C@@H](Cc2ccccc2)NC(=O)[C@@H](C)NC1=O	< 50%
CC(C)[C@H]1NC(=O)[C@H](C)[C@@H](C/C=C\CCC(=O)O)NC(=O)[C@@H](Cc2ccccc2)NC(=O)[C@@H](C)NC1=O	< 50%
CC(C)[C@H]1NC(=O)[C@@H](C)[C@@H](C/C=C\CCC(N)=O)NC(=O)[C@@H](Cc2ccccc2)NC(=O)[C@@H](C)NC1=O [AZUMAMIDE A]	< 50%

Shift focus to the following entry.
Ask: // Input: C[C@@H]1C(=O)N[C@H](C)C(=O)N[C@H](C)C(=O)N[C@H](Cc2ccccc2)C(=O)N[C@@H]1C/C=C\CCC(N)=O [AZUMAMIDE D] . Output its inhibition only.
Reply: < 50%

FYI, the data here is from ChEMBL document CHEMBL2417416.
